- System: MALME-3M melanoma
- assay: NCI-60 one-dose screen, 48 h (100 = growth as untreated, 0 = no growth, -100 = all killed)
- experimentalContext: 10 µM unless noted
The panel holds about 83,000 compounds, 20% with a hit somewhere; the sample as a whole holds those more often.
measuredProperty: growth (%)
The response must be a number in % with no trailing unit.

Completed entries (count: 10):
compound="O=C(O)c1ccccc1C(=O)OC1CCCC2CCCC21 (stereo not given)" scaleunit=% measured=133
compound=O=C1OC(c2ccc(-c3ccccc3)cc2)=C/C1=C/c1cccs1 scaleunit=% measured=98.2
compound=CN(C)c1ccc2c(c1)/C(=N/O)c1ccccc1-2 scaleunit=% measured=87.9
compound=COc1ccc(-c2c3c(nn2-c2ccc(N)cc2)CCc2cnoc2-3)cc1OC scaleunit=% measured=106
compound=O=C1/C(=C/c2ccc([N+](=O)[O-])o2)Oc2ccc(Cl)cc21 scaleunit=% measured=-45.6
compound=Cc1nc(N)[nH]c(=O)c1C scaleunit=% measured=156
compound=Cc1nn(-c2ccccc2)c2c1oc(=O)c1cc(Cl)ccc12 scaleunit=% measured=106
compound=O=C(CSc1nnc(Nc2ccccc2)s1)NCCc1ccc(F)cc1 scaleunit=% measured=97.4
compound=COC(=O)c1ccc2c(c1)nc(-c1ccc(O)c(OC)c1)n2-c1cc(C(C)(C)C)[nH]n1 scaleunit=% measured=114
compound="Clc1ccc(CCC(Cn2ccnc2)Sc2c(Cl)cccc2Cl)cc1 (stereo not given)" scaleunit=% measured=60.3

query: Sample `O=[N+]([O-])c1ccc(Oc2cccc(C(F)(F)F)c2)c([N+](=O)[O-])c1` — what was its growth?
result: 52.3

query: # growth lookup, item `CN(C)c1cccc2c(S(=O)(=O)N[C@H]3CC[C@H]4[C@@H]5CCc6cc(O)ccc6[C@H]5CC[C@]34C)cccc12`
result: 29.6

query: // growth lookup, key: `C=C(C[C@](O)(C(=O)/C=C/c1ccc(Cl)cc1)C(=O)OC)c1ccccc1`
result: 95.7

query: Find the recorded growth belonging to `Cc1c(C(N)=O)sc2c1c(=O)n(Cc1ccccc1)c1nnc(S(=O)(=O)CC(=O)Nc3ccc(Cl)cc3)n21` and report it.
result: 30

query: # query: growth of entry C=CC1=C(C(=O)O)N2C(=O)[C@@H](NC(=O)/C(=N\O)c3csc(N)n3)[C@H]2SC1 (stereo in doubt)
result: 111

query: For the compound shown here, CC(O)c1nc2c(c(=O)n(C)c(=O)n2C)n1C (stereo not given) , give the reported growth.
result: 121

query: Look up growth for this compound: `COc1ccc2[nH]cc(/C=C3/C(=O)Nc4ccc(Cl)cc43)c2c1`
result: 31.5

query: Can you look up the measured growth of `O=c1[nH]c(Cl)nc2c1cnn2-c1ccccc1` for me?
result: 104

query: # get_value(readout='growth', item= `O=C1C(Cl)=C(N=Nc2c(Cl)c(O)c3ccccc3c2O)C(=O)c2ccccc21` )
result: 43.1

query: Data request, read-out growth, for `O=C(/C=C/c1ccc(O)c(O)c1)N1CCN(c2ccc(Cl)cc2)CC1`
result: 66.2

query: Quick one: growth for `Cc1scc2c1N(C(=O)CN1CCN(C)CC1)c1ccccc1NC2=O` ?
result: 108

query: For the compound shown here, `O=c1c(O)cccn1CCCNCCCN(CCCn1cccc(O)c1=O)CCCn1cccc(O)c1=O` , give the reported growth.
result: 108

query: GET /values?readout=growth&item= `Cc1ccsc1/C=C/C1=NCCCN1C`
result: 97

query: Would you mind telling me what growth value was observed for `CC/C(=C\c1ccc(N(C)C)cc1)c1nc2ccccc2c(=O)[nH]1` ?
result: 144

query: Quick one: growth of O=C(C(Br)Br)C(Br)C(Br)c1ccccc1 (stereo not given) ?
result: -37.9

query: Would you mind telling me what growth value was observed for `O=C(O)C(=O)O` ?
result: 108

query: So what's the measured growth for this one? `O=C(NCCCO)c1cc(Cl)ccc1O`
result: 0.89
